System: NCI-H460 lung
experiment: NCI tumour cell line growth inhibition, 48 h
readout.type: TGI (µM)
Give the value, in units of µM, as a plain number.

[
  {
    "compound": "COc1cc(C2C3=C(COC3=O)N(CCO)c3cc4c(cc32)CCC4)cc(OC)c1O (stereo not given)",
    "TGI, µM": 6.65
  },
  {
    "compound": "CC1=NNC(N)=N/C1=C/C(Sc1ccc(Cl)cc1)c1cccs1 (stereo not given)",
    "TGI, µM": 30.5
  },
  {
    "compound": "CC1Cc2c(N(C)C)ncnc2N(C)c2ccc(Cl)cc21 (stereo not given)",
    "TGI, µM": 46.6
  },
  {
    "compound": "O=C(CCCCCCCCCCc1ccccc1)c1c(O)cccc1O",
    "TGI, µM": 39.6
  }
]

Indicate its recorded TGI; the compound in question is C/C(=C(/c1ccc(O)cc1)c1ccc(OCCN2CCCC2)cc1)c1ccccc1
5.38

Indicate its recorded TGI; the compound in question is Oc1cc2cc(-c3ccccc3)[nH]c2c2ccccc12
72.1

----------
Test system: MDA-MB-435
experiment: NCI tumour cell line growth inhibition, 48 h
readout.type: TGI (µM)
Give the value, in units of µM, as a plain number.

[
  {
    "chem.smiles": "COc1cccc(-c2nn(-c3ccccc3)cc2-c2ccnc(NCCNC(=O)Nc3ccc(Cl)c(Cl)c3)c2)c1",
    "TGI (µM)": 4.26
  },
  {
    "chem.smiles": "COc1ccccc1Cn1cc2c(c1)-c1oncc1CC2",
    "TGI (µM)": 0.545
  }
]

Now consider the entry below.
Indicate its recorded TGI; the molecule in question is Cc1nnc([S-])s1.[Au+].c1ccc([PH+](c2ccccc2)c2ccccc2)cc1
3.18

----------
System: SK-MEL-5 melanoma
experiment: NCI tumour cell line growth inhibition, 48 h
Where a SMILES comes first, the peptide text is derived from it. [ ]: non-standard residue; d: D form. The star is where a group is joined. ξ: configuration not given here. NMeY = CN[C@@H](Cc1ccc(O)cc1)C(=O)O; Cbz = O=C(OCc1ccccc1)*; ξA = CC(N)C(=O)O
Below, each entry is listed alongside its reported TGI.

[
  {
    "compound": "Cc1ccc(Nc2nc(=O)[nH]c(=O)[nH]2)cc1N",
    "measured": "> 100 µM"
  },
  {
    "compound": "CC(=O)N[C@@H](Cc1ccc(O)cn1)C(=O)NCc1ccc2c(c1)OCO2",
    "measured": "> 100 µM"
  },
  {
    "compound": "COc1ccc(C[C@@H](C(=O)NCC(N)=O)N(C)C(=O)[C@@H]2CCCN2C(=O)[C@H](CC(C)C)NC(=O)C(C)NC(=O)OCc2ccccc2)cc1 (some centres undefined) (Cbz-[ξA]LP[NMeY](Me)G-NH2)",
    "measured": "> 100 µM"
  }
]

Indicate its recorded TGI; the compound in question is CC(C)c1ccc(/C=C(\NC(=O)c2ccccc2)c2nc3ccccc3[nH]2)cc1
48.7 µM

----------
Below, each entry is listed alongside its reported TGI.
Test system: PC-3 prostate
experiment: NCI tumour cell line growth inhibition, 48 h

The examples below pair each entry with its known result.
[
  {
    "compound": "CNc1ccc2nc(-c3ccc(OC(=O)N(C)C)cc3)cn2c1",
    "measured": "29.5 µM"
  },
  {
    "compound": "CCCCCCCCCCCCCCCCP(=O)(O)OP(=O)(O)OCC1OC(n2ccc(N)nc2=O)C(O)C1O (configuration not stated)",
    "measured": "> 100 µM"
  },
  {
    "compound": "Cc1ccc2ccccc2c1CC1S(=O)(=O)OCCOS1(=O)=O",
    "measured": "24.3 µM"
  }
]

Indicate its recorded TGI; the compound in question is Cn1c(=O)n(-c2ccc(C(C)(C)C#N)cc2)c2c3cc(-c4cnc5ccccc5c4)ccc3ncc21
> 100 µM

Indicate its recorded TGI; the compound in question is C#CC(C)(C)Oc1cc(OC)c2c(=O)c3ccccc3n(C)c2c1
40.8 µM

Indicate its recorded TGI; the compound in question is O=[N+]([O-])c1ccc2nc3ccc([N+](=O)[O-])cn3c2c1
> 100 µM

Indicate its recorded TGI; the compound in question is N#CC1c2ccccc2-c2ccccc2N1C(=O)c1ccccc1 (configuration not stated)
> 100 µM

Indicate its recorded TGI; the compound in question is CC1(C)CC(=O)C(/C=N/c2nc(-c3ccc(Br)cc3)cs2)=C(O)C1
> 100 µM

Indicate its recorded TGI; the compound in question is O=C1OC(c2ccc(O)cc2)(c2ccc(O)cc2)c2cccc3cccc1c23
29 µM

----------
Test system: SK-MEL-5 melanoma
experiment: NCI tumour cell line growth inhibition, 48 h
readout.type: TGI

[
  {
    "compound": "c1ccc2c3c(ccc2c1)CSCc1ccc2ccccc2c1-3",
    "TGI": "> 100 µM"
  },
  {
    "compound": "CCOC(=O)c1[nH]c2c(c1C)-c1[nH]c(=O)c(S(=O)(=O)c3ccccc3)cc1SC2",
    "TGI": "> 100 µM"
  },
  {
    "compound": "O=C(Cc1nc2ccc(C(=O)c3ccccc3)cc2[nH]c1=O)C(=O)Nc1ccccc1[N+](=O)[O-]",
    "TGI": "> 100 µM"
  },
  {
    "compound": "Cc1ccc([P+](Cc2ccc([N+](=O)[O-])cc2)(c2ccc(C)cc2)c2ccc(C)cc2)cc1",
    "TGI": "2.52 µM"
  },
  {
    "compound": "O=C(c1cccs1)N(C(=S)N1CCN(c2ccccc2)CC1)c1ccccc1",
    "TGI": "> 100 µM"
  },
  {
    "compound": "O=C(CCCCCCCCCCc1ccccc1)c1c(O)cccc1O",
    "TGI": "30.4 µM"
  }
]

Give SK-MEL-5 melanoma TGI for the following compound: CCOC(=O)c1c2c(n(C)c1-c1ccccc1)C(=O)C(C)=CC2=O
21.5 µM

Give SK-MEL-5 melanoma TGI for the following compound: CC(CS(=O)(=O)Cc1ccccc1)C(N)=O (stereo not given)
> 100 µM

Give SK-MEL-5 melanoma TGI for the following compound: CCCCCCCCCCCCOC1C(COCCN2CCCC2)OC2OC(C)(C)OC21 (stereo not given)
2.95 µM

Give SK-MEL-5 melanoma TGI for the following compound: O=C1C=CC(=O)c2c(O)c(N3CCSCC3)c(Cl)c(O)c21
1.69 µM

----------
Test system: UO-31 renal
experiment: NCI tumour cell line growth inhibition, 48 h
readout.type: TGI

[
  {
    "molecule": "CC(C)(CN1CCCCC1)C(=O)CC(SCCS(=O)(=O)O)c1ccc(Br)cc1 (centres undefined)",
    "TGI": "2.99 µM"
  },
  {
    "molecule": "CCOc1ccc(NC(=O)c2c(N/N=C/c3ccc(OC)cc3)nc(=O)[nH]c2C)cc1",
    "TGI": "> 100 µM"
  }
]

Indicate its recorded TGI; the molecule in question is CC(CC(=O)O)(CC(=O)O)C(=O)O
> 100 µM

Indicate its recorded TGI; the molecule in question is CC(C)=CCN(N=O)c1ncnc2nc[nH]c12
> 100 µM

Indicate its recorded TGI; the molecule in question is COc1ccc(C(=O)Cc2cc(OC)ccc2OC)cc1
> 100 µM

Indicate its recorded TGI; the molecule in question is COc1cc(N=Nc2cccc(S(=O)(=O)O)c2)c(C)cc1N=Nc1ccc(/C=C/c2ccc(N=[N+]([O-])c3ccc(/C=C/c4ccc(N=Nc5cc(C)c(N=Nc6cccc(S(=O)(=O)O)c6)cc5OC)cc4)c(S(=O)(=O)O)c3)cc2S(=O)(=O)O)cc1
> 100 µM

Indicate its recorded TGI; the molecule in question is CN(C)c1ccc(C(=NNC(=O)c2cc3ccccc3[nH]2)c2ccc(N(C)C)cc2)cc1
> 59.3 µM

Indicate its recorded TGI; the molecule in question is CC1Cc2c(N(C)C)ncnc2N(C)c2ccc(Cl)cc21 (centres undefined)
72.4 µM

Indicate its recorded TGI; the molecule in question is CC1=NN(c2ccc(C)cc2)C2(C1)SCC(=O)N2c1nc2ccccc2s1 (centres undefined)
> 100 µM

----------
System: HT29 colon
experiment: NCI tumour cell line growth inhibition, 48 h
Below, each entry is listed alongside its reported TGI.

[
  {
    "compound": "Nc1ncnc2occ(-c3ccc(NC(=O)Nc4cc(C(F)(F)F)cc(C(F)(F)F)c4)cc3)c12",
    "TGI": "5.29 µM"
  },
  {
    "compound": "N#Cc1c2c(c(N=[N+]=[N-])n3c1nc1ccccc13)CCCC2",
    "TGI": "3.77 µM"
  },
  {
    "compound": "O=C1c2cc(Cl)ccc2-n2c(noc2=O)C2CSCN12 (stereo not given)",
    "TGI": "> 100 µM"
  }
]

Give HT29 colon TGI for the following compound: O=C(Cn1c2ccc(Br)cc2c2nc3ccccc3nc21)NC1CCCCC1
> 100 µM
